Listed here are molecules together with their documented inhibition at 0.1 µM.
measured.target: Cynomolgus Monkey Testicular C17-20 Lyase (Macaca fascicularis)
Construct: Microsomes are isolated from human or cynomolgus monkey tissue; from tissue; host or cells: cynomolgus monkey testis, microsomes
Sequence (Q2XVA1 whole entry): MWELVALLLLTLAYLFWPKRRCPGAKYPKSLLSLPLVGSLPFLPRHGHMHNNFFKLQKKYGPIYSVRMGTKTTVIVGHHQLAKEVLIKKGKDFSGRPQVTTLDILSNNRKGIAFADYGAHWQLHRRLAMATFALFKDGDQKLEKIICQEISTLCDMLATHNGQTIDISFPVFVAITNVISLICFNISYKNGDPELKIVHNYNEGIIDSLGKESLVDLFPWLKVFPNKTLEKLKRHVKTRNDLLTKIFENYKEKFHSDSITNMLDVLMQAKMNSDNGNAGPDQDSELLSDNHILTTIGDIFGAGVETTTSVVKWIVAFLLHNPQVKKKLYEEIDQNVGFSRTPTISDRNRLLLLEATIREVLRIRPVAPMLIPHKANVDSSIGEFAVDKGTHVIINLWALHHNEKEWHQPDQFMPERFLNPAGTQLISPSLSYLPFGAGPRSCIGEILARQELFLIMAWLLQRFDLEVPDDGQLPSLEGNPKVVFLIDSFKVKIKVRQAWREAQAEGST
experimental.protocol: Screen for inhibition of cynomolgus monkey testicular C17-20 lyase by compounds of formula (II)
Type: biochemical
condition.details: 0.1 μM
Protocol: Utilizing an in vitro assay, the activity of the compounds of formulas (I) and (II) as inhibitors of steroid C17-20 lyase are established using microsomal preparations of the enzyme from human or cynomolgus monkey testicular tissue. Human testes were acquired from therapeutic orchiectomies. Microsomes are isolated from human or cynomolgus monkey tissue. […] Radioactivity in the steroid peaks is measured using a Radiometric Model HS or Model A515 Flo-One detector. […]

smi: C[C@]12CC[C@H](O)CC1=CC[C@@H]1[C@@H]2CC[C@]2(C)C(c3ccco3)=CC[C@@H]12
inhibition at 0.1 µM / %: 10
--
smi: C[C@]12CC[C@H](O)CC1=CC[C@@H]1[C@@H]2CC[C@]2(C)C(c3cccs3)=CC[C@@H]12
inhibition at 0.1 µM / %: 43
--
smi: C[C@]12CC[C@H](O)CC1=CC[C@@H]1[C@@H]2CC[C@]2(C)C(c3ccoc3)=CC[C@@H]12
inhibition at 0.1 µM / %: 53
--
smi: C[C@]12CC[C@H](O)CC1=CC[C@@H]1[C@@H]2CC[C@]2(C)C(c3ccsc3)=CC[C@@H]12
inhibition at 0.1 µM / %: 21

====

measured.target: Cynomolgus Monkey Testicular C17-20 Lyase (Macaca fascicularis)
Construct: Microsomes are isolated from human or cynomolgus monkey tissue; from tissue; host or cells: cynomolgus monkey testis, microsomes
experimental.protocol: Screen for inhibition of cynomolgus monkey testicular C17-20 lyase by compounds of formula (II)
Assay type: biochemical
condition.details: 1 μM
Experimental: Utilizing an in vitro assay, the activity of the compounds of formulas (I) and (II) as inhibitors of steroid C17-20 lyase are established using microsomal preparations of the enzyme from human or cynomolgus monkey testicular tissue. Human testes were acquired from therapeutic orchiectomies. Microsomes are isolated from human or cynomolgus monkey tissue. […] Radioactivity in the steroid peaks is measured using a Radiometric Model HS or Model A515 Flo-One detector. […]
Measured inhibition at 1 µM, listed per entry.

smi: C[C@]12CC[C@H](O)CC1=CC[C@@H]1[C@@H]2CC[C@]2(C)C(c3ccco3)=CC[C@@H]12
measured.target: Cynomolgus Monkey Testicular C17-20 Lyase (Macaca fascicularis)
inhibition at 1 µM [%]: 72
//
smi: C[C@]12CC[C@H](O)CC1=CC[C@@H]1[C@@H]2CC[C@]2(C)C(c3ccoc3)=CC[C@@H]12
measured.target: Cynomolgus Monkey Testicular C17-20 Lyase (Macaca fascicularis)
inhibition at 1 µM [%]: 91
//
smi: C[C@]12CC[C@H](O)CC1=CC[C@@H]1[C@@H]2CC[C@]2(C)C(c3ccsc3)=CC[C@@H]12
measured.target: Cynomolgus Monkey Testicular C17-20 Lyase (Macaca fascicularis)
inhibition at 1 µM [%]: 42
//
smi: C[C@]12CC[C@H](O)CC1=CC[C@@H]1[C@@H]2CC[C@]2(C)C(c3cccs3)=CC[C@@H]12
measured.target: Cynomolgus Monkey Testicular C17-20 Lyase (Macaca fascicularis)
inhibition at 1 µM [%]: 75
